Test: Mouse liver microsomal stability of compound in microsomal protein, PBS buffer pH 7.4, NADPH, glucose-6-phosphate and glucose-6-phosphate dehydrogenase media. Aliquotes were taken at 5 time points and after stopping the reaction, supernatants were analyzed using HPLC coupled with a tandem mass spectrometer. The elimination constant, half-life, and intrinsic clearance are determined as results using linear regression analysis. Further: time not given here.
Type: ADME, microsomes, Microsome
Conditions: microsomes
property_label: Remaining (without cofactor) (%)
Quick note: give the figure in %, leave out the unit.

[
  {
    "test_smiles": "CNC(=O)[C@H](Nc1ccc2c(c1)CNC2)c1cc(Cl)cc2[nH]c(-c3ccccc3)nc12",
    "unit_tag": "%",
    "Remaining (without cofactor)": 94.186
  },
  {
    "test_smiles": "N#Cc1cccc(-c2nc3c(C(=O)Nc4ccc5c(c4)CNC5)cc(F)cc3[nH]2)c1",
    "unit_tag": "%",
    "Remaining (without cofactor)": 99.493
  },
  {
    "test_smiles": "CNC(=O)c1cc(Br)cc([C@H](Nc2ccc3c(c2)CNC3)C(=O)NCC(F)F)c1",
    "unit_tag": "%",
    "Remaining (without cofactor)": 95.032
  },
  {
    "test_smiles": "O=C(NCC(F)F)[C@H](Nc1ccc2c(c1)CNC2)c1cc(Cl)cc2ccoc12",
    "unit_tag": "%",
    "Remaining (without cofactor)": 105.352
  },
  {
    "test_smiles": "O=C(NCC(F)F)[C@H](Nc1ccc2c(c1)CNC2)c1cc(Cl)cc2c1CCC2",
    "unit_tag": "%",
    "Remaining (without cofactor)": 103.851
  }
]

Using the record for CNC(=O)c1cc(Cl)ccc1NS(=O)(=O)c1ccc(Oc2ccccc2Cl)cc1 , report its Remaining (without cofactor).
99

Record: COCCNC(=O)[C@H](Nc1ccc2c(c1)CNC2)c1cc(Cl)cc(C2CC2)c1
107.462

Record: Cc1c(C(=O)Nc2cc(-c3cccnc3)ccn2)cc(C2CC2)n1C
95.554

Record: O=C(Nc1cc(Br)c2c(c1)CNC2)c1cc(F)cc2[nH]ncc12
104.117

Record: CN(c1ccc2c(c1)CNC2)[C@H](C(=O)NCC(F)F)c1cc(Cl)cc(C2CC2)c1
110.954
